// data source = patent US20260274955A1

assayed target: T1, anti-CD28 Fab (SEQ ID NOs: 202, 203)
T1 construct: biotinylated and captured on neutravidin coated plates in the phage ELISA
T1 sequence (VH, as listed by the source, chain 1 of 2): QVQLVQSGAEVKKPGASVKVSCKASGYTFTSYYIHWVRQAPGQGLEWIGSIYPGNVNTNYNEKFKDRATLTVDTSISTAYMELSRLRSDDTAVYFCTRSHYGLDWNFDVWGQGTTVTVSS
T1 sequence (VL, as listed by the source, chain 2 of 2): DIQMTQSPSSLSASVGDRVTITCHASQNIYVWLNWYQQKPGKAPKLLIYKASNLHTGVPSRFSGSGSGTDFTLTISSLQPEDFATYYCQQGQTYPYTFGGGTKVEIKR
procedure text: phage binding ELISA; biotinylated Fab on neutravidin plate;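 note: clonal phage supernatants added to Fab wells pretreated with CD28 antigen or with blocking buffer only, bound phage read out via HRP-linked anti-M13 antibody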
measured quantity: Anti-CD28 Fab (SEQ ID NOs: 202, 203) signal

- binder: "YCEGHSPQYVQKCL [Phage-384]"
  result number: 1.77
- binder: "YCDGHSPAYMAKCL [Phage-350]"
  result number: 1.83
- binder: "YCDGHTEEYMDKCL [Phage-360]"
  result number: 1.82
- binder: "YCEGHLPEYMRKCL [Phage-349]"
  result number: 1.83
- binder: "YCDGHLAMYMDKCL [Phage-337]"
  result number: 1.86
- binder: "YCAGHAPEYMFKCM [Phage-347]"
  result number: 1.83
- binder: "YCEGHSAEYMQKCL [Phage-443]"
  result number: 1.7
- binder: "YCEGHSQEYMQKCL [Phage-344]"
  result number: 1.84
- binder: "YCDGHIGEYMVKCL [Phage-395]"
  result number: 1.76
- binder: "YCSGHLPEYMQKCL [Phage-403]"
  result number: 1.75
- binder: "YCDGHSGVYMWKCL [Phage-420]"
  result number: 1.73
- binder: "YCDGHLQIYMHKCL [Phage-434]"
  result number: 1.71
- binder: "YCAGHSSEYIWKCL [Phage-362]"
  result number: 1.82
- binder: "YCDGHTGVYFYKCL [Phage-334]"
  result number: 1.87
- binder: "YCAGHSAEYMAKCL [Phage-419]"
  result number: 1.73
- binder: "YCAGHSPLYMLKCL [Phage-442]"
  result number: 1.7
